# assay remarks: ATG_M_32_TRANS: Attagene TRANS-FACTORIAL HepG2 Assay for M32 Transcription Factor (Internal Marker) (AID 2282984)
# setup conditions: HepG2 Attagene TRANS M32 internal marker reporter
Records with an inconclusive call do not appear. The source made the active and inactive calls. How the source made its calls: active means hit-call score of the fitted dose curve at least 0.9, where 1 is the maximum; inconclusive means response in the unintended direction; inactive means score below 0.9.
Outcomes: active, inactive

1. C[C@]12CC[C@@H]3c4ccc(O)cc4CC[C@H]3[C@@H]1CC[C@H]2O    inactive
2. Cc1oc2c(NC(=O)c3c(Cl)cccc3Cl)cccc2c1C(C)(C)O    inactive
3. CCO[Si](CCCNC(N)=O)(OCC)OCC    inactive
4. O=C(O)Cc1cc(I)c(Oc2ccc(O)c(I)c2)c(I)c1    inactive
5. OC12N=C(c3ccccc3)SC1Cc1cc(Cl)ccc12 (stereo not drawn)    inactive
6. CO[C@H]1/C=C/O[C@@]2(C)Oc3c(C)c(O)c4c(O)c(c(/C=N/N5CCN(C)CC5)c(O)c4c3C2=O)NC(=O)/C(C)=C\C=C\[C@H](C)[C@H](O)[C@@H](C)[C@@H](O)[C@@H](C)[C@H](OC(C)=O)[C@@H]1C    inactive
7. CCCCCCCCOc1ccc(C(=O)c2ccccc2)c(O)c1    inactive
8. Oc1ccccc1    inactive
9. O=C=NCCCCCCN=C=O    inactive
10. NC(=O)c1nc(-c2cccc(-c3cc(F)ccc3OCC(F)(F)C(F)(F)F)c2)n[nH]1    inactive
11. CC(C)(c1cc(Br)c(O)c(Br)c1)c1cc(Br)c(O)c(Br)c1    inactive
12. CCCCCCCC[Si](OCC)(OCC)OCC    inactive
13. CCCCOC(=O)c1ccc(O)cc1    inactive
14. COCC(C)OCC(C)OCC(C)O (stereo not drawn)    inactive
15. O=C(O)c1ccccc1-n1cc(C(=O)O)c(=O)c2cc(Nc3c(F)cc(F)cc3Cl)c(Cl)cc21    inactive
16. O=C1CCC(C2CCCCC2)CC1    inactive
17. O=C(Nc1ccc(Cl)cc1)Nc1ccc(Cl)c(Cl)c1    inactive
18. Cc1occc1C(=O)Nc1ccc(C(=O)N2CCC(F)(F)/C(=C\C(=O)N3CCC(N4CCCCC4)CC3)c3ccccc32)cc1    inactive
19. CC(O)CC(C)(C)O (stereo not drawn)    inactive
20. C[C@]12CC[C@@H]3c4ccc(O)cc4CC[C@H]3[C@@H]1CCC2=O    inactive
21. CCCCCCCCOC(=O)c1cc(O)c(O)c(O)c1    inactive
22. CCCCCCCCCCCO    active
23. CCN(Cc1cccnc1)C(=O)c1cccc(Cl)c1[C@]1(C)C(=O)N(Cc2ccc(OC)cc2OC)c2ccc(Cl)cc21    inactive

====

# study target: Nuclear receptor subfamily 1 group I member 2 (Homo sapiens) (UniProt O75469)
# Sequence (O75469 whole entry, looked up): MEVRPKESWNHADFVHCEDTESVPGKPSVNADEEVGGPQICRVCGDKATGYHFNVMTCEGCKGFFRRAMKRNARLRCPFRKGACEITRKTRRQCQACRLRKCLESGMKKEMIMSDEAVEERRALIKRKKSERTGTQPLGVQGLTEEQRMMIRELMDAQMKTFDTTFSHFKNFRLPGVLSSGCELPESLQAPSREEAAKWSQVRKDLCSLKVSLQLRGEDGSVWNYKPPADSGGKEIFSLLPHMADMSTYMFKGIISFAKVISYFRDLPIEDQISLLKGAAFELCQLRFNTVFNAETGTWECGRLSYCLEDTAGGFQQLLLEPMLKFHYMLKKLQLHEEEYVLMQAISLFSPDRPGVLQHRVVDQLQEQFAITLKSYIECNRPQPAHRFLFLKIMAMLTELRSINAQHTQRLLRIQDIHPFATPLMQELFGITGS
# assay remarks: ATG_PXR_TRANS: Attagene TRANS-FACTORIAL HepG2 Assay for human Pregnane X Receptor (PXR) (AID 2283008)
Records with an inconclusive call do not appear. Activity calls are given as the source filed them. Rule for the calls: active = hit-call score of the fitted dose curve at least 0.9, where 1 is the maximum; inconclusive = response in the unintended direction; inactive = score below 0.9.
measure: AC50

1. CC[C@@H]1C[C@H](N(Cc2cc(C(F)(F)F)cc(C(F)(F)F)c2)C(C)=O)c2cc(C(F)(F)F)ccc2N1C(=O)OC(C)C    0.118 µM (active)
2. O=C(O)c1ccccc1C(=O)OCc1ccccc1    inactive
3. O=C(O)Cn1c(=O)n(Cc2ccc(Br)cc2F)c(=O)c2ccc(Cl)cc21    11 µM (active)
4. CCCCCCCCCCCO    inactive
5. CCCCCCCCOC(=O)c1cc(O)c(O)c(O)c1    6.39 µM (active)
6. Cc1ccc(C(C)C)cc1    inactive
7. CC(C)(O)c1ccc(CNC(=O)c2cccnc2Oc2ccc3nonc3c2)cc1    10.5 µM (active)
8. CCN(Cc1cccnc1)C(=O)c1cccc(Cl)c1[C@]1(C)C(=O)N(Cc2ccc(OC)cc2OC)c2ccc(Cl)cc21    0.0262 µM (active)
9. c1ccc2ccccc2c1    inactive
10. Cc1c2ccccc2c(C)c2c1ccc1ccccc12    2.57 µM (active)
11. CC(O)CC(C)(C)O (centres undefined)    inactive
12. Oc1ccc2ccccc2c1    inactive
13. CCOC(=O)O[C@H](C)OC(=O)c1ccc2c(c1)cc(C(=O)NC1CCN(C(C)C)CC1)n2Cc1cc(-c2ccc(Cl)s2)on1    inactive
14. Cc1cc2c(cc1C(F)(F)F)N(C(=O)Nc1ccc(Oc3cccnc3C)nc1)CC2    inactive
15. CC[C@H](NC(=O)c1cc(F)ccc1NS(=O)(=O)c1cccc2cccnc12)c1ccccc1    0.0124 µM (active)
16. O=C(O)c1ccccc1-n1cc(C(=O)O)c(=O)c2cc(Nc3c(F)cc(F)cc3Cl)c(Cl)cc21    inactive
17. Cc1ncc(CO)c(CO)c1O    inactive
18. COc1ccc2cc(S(=O)(=O)N[C@H](CC(=O)N[C@H](Cc3ccc(CN4[C@H](C)CCC[C@@H]4C)cc3)C(=O)N(C)C(C)C)c3ccc4c(c3)OCO4)ccc2c1    inactive
19. O=CCCCC=O    inactive
20. c1ccc2n[nH]nc2c1    inactive
21. CN(C)C(=O)C1(N2CCCCC2)CCN(CC[C@@]2(c3ccc(Cl)c(Cl)c3)CN(C(=O)c3ccccc3)CCO2)CC1    inactive
22. Clc1cc(Cl)c2c(c1)N=C1CCCCCN1C2    20.2 µM (active)
23. O=C(Nc1ccc(Cl)cc1)Nc1ccc(Cl)c(Cl)c1    inactive
24. OC12N=C(c3ccccc3)SC1Cc1cc(Cl)ccc12 (centres undefined)    2.41 µM (active)
25. OCCO    inactive
26. CCCOC(=O)c1cc(O)c(O)c(O)c1    inactive
27. COc1cc(C(=O)NC2CCN(C)CC2)ccc1Nc1ncc2c(n1)N(C1CCCC1)CC(F)(F)C(=O)N2C    inactive
28. CCN(CC)C(=O)c1cc(S(=O)(=O)Cc2ccccc2)c(N2CCC(c3ccccc3)CC2)cc1N(CC)CCN(C)C    0.091 µM (active)
29. CC(=O)N1CCN(c2ccc(OC[C@H]3CO[C@](Cn4ccnc4)(c4ccc(Cl)cc4Cl)O3)cc2)CC1    inactive
30. CCCCCCCCCC(=O)O    inactive
31. CC(C)(C)c1cc(/C=C2\SC(N)=NC2=O)cc(C(C)(C)C)c1O    4.17 µM (active)
32. NCc1cccc(C2CCN(C(=O)c3ccc(C#Cc4ccccc4F)o3)CC2)c1    8.45 µM (active)
33. Cc1cc(F)ccc1-c1cc(N2CC[C@@H](O)[C@H]2CO)ncc1N(C)C(=O)C(C)(C)c1cc(C(F)(F)F)cc(C(F)(F)F)c1    1.14 µM (active)
34. c1ccc(C[n+]2cccc3ccccc32)cc1    inactive
35. Cc1cccc2ccccc12    inactive
36. NC(=O)c1nc(-c2cccc(-c3cc(F)ccc3OCC(F)(F)C(F)(F)F)c2)n[nH]1    8.71 µM (active)
37. CCN(Cc1cccc(S(=O)(=O)O)c1)c1ccc(C(=C2C=CC(=[N+](CC)Cc3cccc(S(=O)(=O)O)c3)C=C2)c2ccccc2S(=O)(=O)[O-])cc1    inactive
38. CN(C[C@@H](CC[N+]12CCC(C3CCCCC3)(CC1)CC2)c1ccc(Cl)c(Cl)c1)C(=O)c1cc(C(F)(F)F)cc(C(F)(F)F)c1    inactive
39. CCCCCCCCOc1ccc(C(=O)c2ccccc2)c(O)c1    inactive

====

# Read-out: Tissue plasminogen activator (tPA), PLAT (gene 5327)
# assay remarks: BSK_BE3C_tPA: BioMAP Diversity Plus: BE3C Assay for Tissue plasminogen activator (tPA) Biomarker Activity (AID 2283041)
# setup conditions: primary human bronchial epithelial cells; actives raise or lower the signal
Activity calls are given as the source filed them. Rule for the calls: active = hit-call score of the fitted dose curve at least 0.9, where 1 is the maximum; inactive = score below 0.9.
Outcomes: True = active, False = inactive

1. CN1C(=O)N(c2ccccc2Br)Cc2cnc(Nc3ccc4c(c3)OCC(CO)O4)nc21 (stereo unspecified)    True
2. O=C1O[C@H]([C@@H](O)CO)C(O)=C1O    False
3. Cc1ncc(CO)c(CO)c1O    False
4. CCN(Cc1cccnc1)C(=O)c1cccc(Cl)c1[C@]1(C)C(=O)N(Cc2ccc(OC)cc2OC)c2ccc(Cl)cc21    False
5. CCCCCCCCN(C)CCCCCCCC    False
6. O=C(O)Cc1cc(I)c(Oc2ccc(O)c(I)c2)c(I)c1    True
7. O=C1c2ccccc2C(=O)N1CCc1noc(-c2ccc(CN3CCCCCC3)s2)n1    False
8. Cc1cccc2ccccc12    False
9. C[C@]12CC[C@@H]3c4ccc(O)cc4CC[C@H]3[C@@H]1CC[C@H]2O    False
10. CC1(C)NC(=O)N(c2ccc([N+](=O)[O-])c(C(F)(F)F)c2)C1=O    False
11. c1ccc(C[n+]2cccc3ccccc32)cc1    False
